# test-system: T1, AS325 VHH (camel-derived)
# T1 construct: One of the 10 different camel-derived nanobodies; not shown: His tag (VHH-His)
# T1 sequence (VHH, as listed by the source): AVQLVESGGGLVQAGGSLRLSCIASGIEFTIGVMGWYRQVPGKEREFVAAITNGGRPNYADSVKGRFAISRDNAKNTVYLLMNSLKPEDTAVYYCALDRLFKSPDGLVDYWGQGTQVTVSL
# assay-overview: indirect ELISA, VHH coated
outcome-measure: binding result

>  <binder>
R166.G8 (antibody, V domains shown, Rabbit monoclonal; also called clone R166.G8) VH: LEQSGGGAEGGLVKPGGSLELCCKASGFSLSNIYWICWVRQAPGTGLEWIGCINSGSNSYTYYANWVDGRFTLSRDIDQSTGCLQLNSLTAADTAMYYCARDRDAADTSDWSLNFWGQGTLVTVSS VL: QVLTQTPSSVSAAVGGTVTISCQSSDSVNNDNWLAWYQQKPGQPPKLLIYQASKLASGVPSRFSGSGSGTQFTLTISGVQCDDAANYYCQGTGYSSTWYVAFGGGTEVVVKG

>  <outcome-measure>
binding result

>  <obs-value>
binds

$$$$
